Molecular target: Short transient receptor potential channel 6 (Mus musculus) (UniProt Q61143)
Sequence (Q61143 whole entry, looked up): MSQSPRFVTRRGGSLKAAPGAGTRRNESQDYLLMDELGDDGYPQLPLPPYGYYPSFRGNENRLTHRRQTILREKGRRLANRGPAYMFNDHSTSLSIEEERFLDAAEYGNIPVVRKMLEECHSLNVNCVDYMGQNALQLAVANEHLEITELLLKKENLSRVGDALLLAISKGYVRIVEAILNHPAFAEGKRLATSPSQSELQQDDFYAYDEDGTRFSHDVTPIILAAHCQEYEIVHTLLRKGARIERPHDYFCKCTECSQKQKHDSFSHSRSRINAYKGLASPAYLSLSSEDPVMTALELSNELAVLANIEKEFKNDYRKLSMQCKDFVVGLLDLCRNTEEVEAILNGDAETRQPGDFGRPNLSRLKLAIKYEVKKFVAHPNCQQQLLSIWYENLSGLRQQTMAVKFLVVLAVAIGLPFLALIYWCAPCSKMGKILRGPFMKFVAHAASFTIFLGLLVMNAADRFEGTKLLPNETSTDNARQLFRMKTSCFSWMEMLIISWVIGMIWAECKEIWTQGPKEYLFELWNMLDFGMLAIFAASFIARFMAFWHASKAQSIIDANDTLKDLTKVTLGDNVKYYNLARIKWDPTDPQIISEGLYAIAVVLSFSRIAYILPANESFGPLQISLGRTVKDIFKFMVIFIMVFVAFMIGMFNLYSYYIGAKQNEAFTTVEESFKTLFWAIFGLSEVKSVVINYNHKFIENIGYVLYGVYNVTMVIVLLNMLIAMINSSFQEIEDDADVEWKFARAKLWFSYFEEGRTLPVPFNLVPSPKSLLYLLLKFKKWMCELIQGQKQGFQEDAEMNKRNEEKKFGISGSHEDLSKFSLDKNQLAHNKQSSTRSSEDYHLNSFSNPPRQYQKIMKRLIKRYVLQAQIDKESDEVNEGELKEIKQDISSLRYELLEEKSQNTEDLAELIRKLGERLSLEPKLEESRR
Assay: TRPC6 blockade by TRPC4 inhibitor hits – cell-based, HEK293, membrane potential dye, duplicate, selectivity assay for TRPC4 inhibitor project, confirmation (AID 434948)
Conditions: HEK293 TRPC6, membrane potential dye fluorescence, at 10 µM, stimulated with maximal-effect acetylcholine
Calls of active or inactive are those of the source.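 How the source made its calls: active means active in primary screen and both duplicates, each dropping signal beyond three positive-control SD with fluorescence still positive; inactive means the rest.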
Your reply should match one of these outcome classes. yes = active, no = inactive

A selection of reference data follows.
> print(dat)
                                   compound  classification
1      O=C(COC(=O)c1nc(Cl)ccc1Cl)c1ccccc1Cl              no
2  CCOCCCn1cnc2c(c1=O)c1nc3ccccc3nc1n2-c1ccc(C)cc1              no

*Q* Could you kindly confirm the outcome this assay logged for CNC(=O)COc1ccc2oc3c(c2c1)CCCC3 ?
*A* no

*Q* Could you kindly confirm the outcome this assay logged for Cc1cc2cc(CN(Cc3cccs3)C(=S)NCc3ccco3)c(=O)[nH]c2cc1C ?
*A* no

*Q* Could you kindly confirm the outcome this assay logged for Cc1cccc2cc(CN(Cc3nnnn3Cc3ccccc3)C3CCCC3)c(=O)[nH]c12 ?
*A* no

*Q* Could you kindly confirm the outcome this assay logged for Cc1cccc(C)c1NC(=O)NCCCN1CCN(c2ccccc2)CC1 ?
*A* no

*Q* Could you kindly confirm the outcome this assay logged for CC(C)c1ccc(S(=O)(=O)/N=C2\C=C(NS(=O)(=O)c3ccccc3)C(=O)c3ccccc32)cc1 ?
*A* yes

*Q* Could you kindly confirm the outcome this assay logged for Oc1cccc(C(=S)N2CCN(Cc3ccccc3)CC2)c1 ?
*A* no

*Q* Could you kindly confirm the outcome this assay logged for CCSc1nnc([C@H](Cc2c[nH]c3ccccc23)NC(=O)OC(C)(C)C)o1 ?
*A* no

====

Test: parental CHO-K1 cell activation, no KCNQ2 – FluxOR thallium flux, duplicate, counter-screen for KCNQ2 potentiator project, confirmation (AID 2282);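 further: counter screen of KCNQ2 potentiator hits so any rise reflects channel-independent effects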
Settings: parental CHO-K1 cells, FluxOR thallium flux fluorescence; at 10 µM; zero = vehicle mean+3SD, 100% = vehicle-minus-blank window
Some of the results follow. The source made the active and inactive calls.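 How the source made its calls: active means signal rise of at least 3 SD above the untreated control mean, in both duplicate wells; inactive means the rest.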
Your reply should match one of these outcome classes. active, inactive

> print(dat)
                                   compound  classification
1  COc1ccc(-c2n[nH]c(C)c2-c2ccccc2OC)c(O)c1          active
2  Cc1ccc(S(=O)(=O)N2CCN(C(=O)COC(=O)c3c(C)cc(C)cc3C)CC2)c(C)c1        inactive
3           CCOC(=O)c1c(NC(=S)NC)sc2c1CCCC2          active
4      Cc1ccc(/C=N/NC(=O)c2cc3ccccc3cc2O)o1          active
5      O=c1c2cc(Br)ccc2nc(-c2cccc(Cl)c2)n1O        inactive

*Q* Could you kindly confirm the outcome this assay logged for C/C(=N\NC(=O)c1ccoc1C)c1ccccc1O ?
*A* active

*Q* Could you kindly confirm the outcome this assay logged for COc1ccc(NC(=O)CCCC2CCCCC2)c(OC)c1 ?
*A* inactive

*Q* Could you kindly confirm the outcome this assay logged for CCc1ccc(NC(=O)C(=O)NNC(=O)c2cccs2)cc1 ?
*A* inactive

*Q* Could you kindly confirm the outcome this assay logged for Fc1cc(F)c2nc(Nc3nc4c(F)cccc4s3)sc2c1 ?
*A* inactive

*Q* Could you kindly confirm the outcome this assay logged for CC(NC(=O)Nc1ccccc1)c1ccccc1 (stereo not given) ?
*A* inactive
